Reported Ki values, Sodium-dependent serotonin transporter (Homo sapiens, UniProt P31645).
outcome.measure: Ki

> print(dat)
                                   compound  experimental.value
1  COC(=O)[C@@H]1C2CCC(C[C@@H]1c1ccc(C)cc1)N2C/C=C/CF (stereo partly drawn)              147 nM
2  COC(=O)[C@@H]1C2CCC(C[C@@H]1c1ccc(Br)cc1)N2C/C=C/CF (stereo partly drawn)              8.5 nM
3  COC(=O)[C@@H]1C2CCC(C[C@@H]1c1ccc(I)cc1)N2C/C=C/CF (stereo partly drawn)              2.2 nM

----------
Reported pKi values, Sodium-dependent dopamine transporter (Homo sapiens, UniProt Q01959).
pKi: −log10 of the molar value.
outcome.measure: pKi

> print(dat)
                                   compound  experimental.value
1  COC(=O)[C@@H]1C2CCC(C[C@@H]1c1ccc(I)cc1)N2C/C=C/CF (stereo partly drawn)                9.30
2  COC(=O)[C@@H]1C2CCC(C[C@@H]1c1ccc(C)cc1)N2C/C=C/CF (stereo partly drawn)                8.57
3  COC(=O)[C@@H]1C2CCC(C[C@@H]1c1ccc(F)cc1)N2C/C=C/CF (stereo partly drawn)                8.02
